Assay: Absorption spectrum, emission spectrum and extinction coefficient in toluene solution
Format: physicochemical
Details: maximum absorption peak
Reported property: Molar extinction coefficient of the toluene solution

[
  {
    "Chemical string": "CC(C)c1ccc(-c2cc(-c3cc(C(C)(C)C)cc(C(C)(C)C)c3)ccc2N(c2cc(F)c(F)c(F)c2)c2cc(N(c3cc(F)c(F)c(F)c3)c3ccc(-c4cc(C(C)(C)C)cc(C(C)(C)C)c4)cc3-c3ccc(C(C)C)cc3)c3ccc4c(N(c5cc(F)c(F)c(F)c5)c5ccc(-c6cc(C(C)(C)C)cc(C(C)(C)C)c6)cc5-c5ccc(C(C)C)cc5)cc(N(c5cc(F)c(F)c(F)c5)c5ccc(-c6cc(C(C)(C)C)cc(C(C)(C)C)c6)cc5-c5ccc(C(C)C)cc5)c5ccc2c3c54)cc1",
    "Recorded result": "5.1 × 10^4 L · mo 1^−1"
  },
  {
    "Chemical string": "CCc1cccc(CC)c1N(c1cc(C(C)(C)C)cc(C(C)(C)C)c1)c1cc(N(c2cc(C(C)(C)C)cc(C(C)(C)C)c2)c2c(CC)cccc2CC)c2ccc3c(N(c4cc(C(C)(C)C)cc(C(C)(C)C)c4)c4c(CC)cccc4CC)cc(N(c4cc(C(C)(C)C)cc(C(C)(C)C)c4)c4c(CC)cccc4CC)c4ccc1c2c43",
    "Recorded result": "5.3 × 10^4 L · mo 1^−1"
  },
  {
    "Chemical string": "CCCCCCCCc1ccc(-c2cc(OC)ccc2N(c2cc(F)c(F)c(F)c2)c2cc(N(c3cc(F)c(F)c(F)c3)c3ccc(OC)cc3-c3ccc(CCCCCCCC)cc3)c3ccc4c(N(c5cc(F)c(F)c(F)c5)c5ccc(OC)cc5-c5ccc(CCCCCCCC)cc5)cc(N(c5cc(F)c(F)c(F)c5)c5ccc(OC)cc5-c5ccc(CCCCCCCC)cc5)c5ccc2c3c54)cc1",
    "Recorded result": "7.0 × 10^4 L · mo 1^−1"
  },
  {
    "Chemical string": "CCCCCCCCc1ccc(-c2c(N(c3cc(F)c(F)c(F)c3)c3cc(N(c4cc(F)c(F)c(F)c4)c4ccc5ccccc5c4-c4ccc(CCCCCCCC)cc4)c4ccc5c(N(c6cc(F)c(F)c(F)c6)c6ccc7ccccc7c6-c6ccc(CCCCCCCC)cc6)cc(N(c6cc(F)c(F)c(F)c6)c6ccc7ccccc7c6-c6ccc(CCCCCCCC)cc6)c6ccc3c4c65)ccc3ccccc23)cc1",
    "Recorded result": "5.8 × 10^4 L · mo 1^−1"
  }
]

====

Assay: Absorption spectrum, emission spectrum and extinction coefficient in toluene solution
Assay type: physicochemical
Reported property: Emission peak of the toluene solution (nm)

[
  {
    "Chemical string": "Cc1cccc(C)c1N(c1cc(C(C)(C)C)cc(C(C)(C)C)c1)c1cc(N(c2cc(C(C)(C)C)cc(C(C)(C)C)c2)c2c(C)cccc2C)c2ccc3c(N(c4cc(C(C)(C)C)cc(C(C)(C)C)c4)c4c(C)cccc4C)cc(N(c4cc(C(C)(C)C)cc(C(C)(C)C)c4)c4c(C)cccc4C)c4ccc1c2c43",
    "Reading unit": "nm",
    "Recorded result": 497
  },
  {
    "Chemical string": "Cc1cccc(C)c1N(c1ccc(C(C)(C)C)cc1)c1cc(N(c2ccc(C(C)(C)C)cc2)c2c(C)cccc2C)c2ccc3c(N(c4ccc(C(C)(C)C)cc4)c4c(C)cccc4C)cc(N(c4ccc(C(C)(C)C)cc4)c4c(C)cccc4C)c4ccc1c2c43",
    "Reading unit": "nm",
    "Recorded result": 495
  },
  {
    "Chemical string": "CCCCCCCCc1ccc(-c2cc(C(C)C)ccc2N(c2cc(F)c(F)c(F)c2)c2cc(N(c3cc(F)c(F)c(F)c3)c3ccc(C(C)C)cc3-c3ccc(CCCCCCCC)cc3)c3ccc4c(N(c5cc(F)c(F)c(F)c5)c5ccc(C(C)C)cc5-c5ccc(CCCCCCCC)cc5)cc(N(c5cc(F)c(F)c(F)c5)c5ccc(C(C)C)cc5-c5ccc(CCCCCCCC)cc5)c5ccc2c3c54)cc1",
    "Reading unit": "nm",
    "Recorded result": 494
  }
]
